# protocolDetails: qHTS of pediatric cancer cell lines to identify multiple opportunities for drug repurposing: Confirmatory screen for Saos-2 cells (AID 1347127); also: nearly all actives have a fitted effect of over 60% in size;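 as to activity change, negative = cytotoxic: plate controls were DMSO for no effect and bortezomib for full effect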
# testSettings: Saos-2 osteosarcoma cell viability; series mostly up to 45.9 µM
Records with an inconclusive call do not appear. The source made the active and inactive calls. Calls follow the shape of the dose curve; as a rule, active = well fitted cell-killing curve with a large enough effect; inconclusive = small, poorly fitted or top-dose-only effect, or effect the other way; inactive = no such curve, though single readings can be large or run the other way.
testReadout: activity change, negative = cytotoxic

CN/C(=C\[N+](=O)[O-])NCCSCc1ccc(CN(C)C)o1 ... inactive
C[C@]12CC[C@@H]3c4ccc(O)cc4C[C@@H](CCCCCCCCCS(=O)CCCC(F)(F)C(F)(F)F)[C@H]3[C@@H]1CC[C@@H]2O (some centres undefined) ... inactive
NCCCNCCSP(=O)(O)O ... -1.29% [at 9.58 µM] (inactive)
CN1C[C@H](C(=O)N[C@]2(C)O[C@@]3(O)[C@@H]4CCCN4C(=O)[C@H](Cc4ccccc4)N3C2=O)C[C@@H]2c3cccc4[nH]cc(c34)C[C@H]21 ... inactive

* * *

# System: Tov112D
# protocolDetails: Primary qHTS to identify gynecologic anti-cancer compounds using libraries of approved drugs and bioactive compounds (AID 1345084); also: % is scaled to controls: 0 for no effect and ±100 for the full control effect; nearly all actives have a fitted effect of over 55% in size
# testSettings: Gynecologic cancer cell panel viability, ATPlite luminescence, 48 h; series mostly up to 57.5 µM
# Excerpt: National Center for Advancing Translational Sciences [NCATS] Assay Overview: Chemotherapeutic drug responses vary from cancer to cancer and from patient to patient. […] ATPlite is a luminescence based assay reliant on the conversion of a luciferase substrate to light in the presence of ATP. As a cytotoxic compound will suppress growth and decrease the number of cells, the concentration of ATP will decrease, and less light signal will be detected in the well. […]
Records with an inconclusive call do not appear. The source made the active and inactive calls. Calls come from the whole dose curve; as a rule, active = well fitted cell-killing curve with a large enough effect; inconclusive = small, poorly fitted or top-dose-only effect, or effect the other way; inactive = flat fitted curve, though single readings scatter.
testReadout: activity change, negative = cytotoxicity

COc1ccc(CN(CCN(C)C)c2ccccn2)cc1 ... inactive
CN(C)CC/C=C1\c2ccccc2COc2ccccc21 ... inactive
C[C@]12C=CC(=O)C=C1CC[C@H]1[C@@H]3C[C@@H](O)[C@](O)(C(=O)CO)[C@@]3(C)C[C@H](O)[C@@]12F ... inactive

* * *

# protocolDetails: Drug repurposing screens with cells derived from glioblastoma tumor samples (AID 1345199); also: % is scaled to controls: 0 for no effect and ±100 for the full control effect; nearly all actives have a fitted effect of over 40% in size
# testSettings: GBM patient neurospheres viability, ATP luminescence, 48 h; at 21.2 µM (top of the series); tumour line D
Records with an inconclusive call do not appear. Activity calls are given as the source filed them. Calls come from the whole dose curve; as a rule, active = well fitted inhibition curve with a large enough effect; inconclusive = small, poorly fitted or top-dose-only effect; inactive = flat fitted curve, though single readings scatter.
testReadout: activity, negative = cell killing

Give me measured activity, negative = cell killing, please, for this compound: "CC(C)(Oc1ccc(CCNC(=O)c2ccc(Cl)cc2)cc1)C(=O)O"
0.604% (inactive)

Specify activity, negative = cell killing for "CCN(CC)CCNC(=O)c1cc(S(C)(=O)=O)ccc1OC" and stop.
-4.2% (inactive)

Give recorded activity, negative = cell killing. CCc1c(C)[nH]c2c1C(=O)C(CN1CCOCC1)CC2 (centres undefined)
1.91% (inactive)

Quote activity, negative = cell killing reported for "CCn1nc(C(=O)O)c(=O)c2cc3c(cc21)OCO3" please.
-5.8% (inactive)

* * *

# protocolDetails: P-glycoprotein substrates identified in KB-8-5-11 adenocarcinoma cell line, qHTS therapeutic library screen (AID 1346987); also: nearly all actives have a fitted effect of over 65% in size
# testSettings: KB-8-5-11 (P-gp overexpressing) viability, CellTiter-Glo, 72 h; series mostly up to 44.5 µM
Results filed as inconclusive are left out. The source made the active and inactive calls. The call rests on the fitted dose curve; in most records, active means well fitted inhibition curve with a large enough effect; inconclusive means small, poorly fitted or top-dose-only effect; inactive means flat fitted curve, though single readings scatter.
Please answer using one outcome listed in 1.0 = active, 0.0 = inactive

Can you look up the reported call for "Cc1nc2c([nH]1)c(=O)n(C)c(=O)n2Cc1ccco1" for me?
0.0

State the result this test recorded for "C[N+](C)(C)CCOC(N)=O" .
0.0

How was "CC(C)(Oc1ccc(CCNC(=O)c2ccc(Cl)cc2)cc1)C(=O)O" classified in this test?
0.0

Query: recorded result category for CCCCCN(CCCCC)C(=O)C(CCC(=O)O)NC(=O)c1ccc(Cl)c(Cl)c1 (stereo not drawn) in this test
0.0

Please let me know the test result on file for "COC(=O)[C@H]1[C@H]2C[C@@H]3c4[nH]c5cc(OC)ccc5c4CCN3C[C@H]2C[C@@H](OC(=O)c2cc(OC)c(OC)c(OC)c2)[C@@H]1OC" .
0.0

Which result was noted for this compound in the test: CC(=O)OC(C)C[N+](C)(C)C (stereo not drawn)
0.0

Could you kindly confirm the outcome this assay logged for "Cc1ccc(=O)n(-c2ccccc2)c1" ?
0.0

Called result for "C[C@]12CCC(=O)C=C1CC[C@@H]1[C@@H]2C(=O)C[C@@]2(C)[C@H]1CC[C@]2(O)C(=O)CO"
0.0

I'd appreciate the recorded outcome for "CCN(CC)CCNC(=O)c1ccc(NC(C)=O)cc1" from this test.
0.0

Hi, sorry to bother you, what did the test record for "O=C1CC2(CCCC2)CC(=O)N1CCCCN1CCN(c2ncccn2)CC1" ?
1.0

For this compound, state the assay outcome: "CNCCCN1c2ccccc2CCc2ccccc21"
0.0

Tell me the assay call for "CCCCCCCC/C=C\CCCCCCCC(=O)NCc1ccc(O)c(OC)c1" please.
0.0

Write down the call the test reported for this compound. Item: "CN(C)C(=O)Oc1cccc([N+](C)(C)C)c1"
0.0

How did this test come out for "COc1cc2c(cc1OC)-c1cc(=Nc3c(C)cc(C)cc3C)n(C)c(=O)n1CC2" ?
1.0

Returns: the outcome recorded for "CC(C)NNC(=O)c1ccncc1" in this assay.
0.0

Per the assay record, what outcome was assigned to "CN(C)CCOC(=O)COc1ccc(Cl)cc1" ?
0.0

Field: outcome | Entry: "CC(=O)OCC1=C(C(=O)O)N2C(=O)[C@@H](NC(=O)Cc3cccs3)[C@H]2SC1"
0.0

Hi, do you know how "COc1cc(Cc2cnc(N)nc2N)cc(OC)c1OC" came out in this test?
0.0

Source of measurements: PubChem BioAssay (NCATS)
